Origin of values: patent US12291522B2

Below is a list of entries, each paired with its recorded IC50 value.
# Tested target: Gal3 (Human Galectin-3) in THP-1 cells (Homo sapiens)
# Construct: host or cells: THP-1
# Protocol notes: ELISA Gal3 Degradation Assay in THP-1 Cells
# Assay type: cell-based
# Condition context: 48 hours, culture media Gal3 by ELISA, test 1, read-out: Supernatant (IC50) test 1
# value in nM; strip the unit string

Molecule | IC50 [nM]
Cc1nc([C@@H]2O[C@H](CO)[C@H](O)[C@H](n3cc(-c4cc(F)c(Cl)c(F)c4)nn3)[C@H]2OCC(=O)NCCOCC(=O)N[C@H](C(=O)N2C[C@H](O)C[C@H]2C(=O)NCc2ccc(-c3scnc3C)cc2)C(C)(C)C)n(-c2cc(Cl)ccc2C(F)(F)F)n1 | 51

Identify the reported IC50 for the following entry. Cc1nc([C@@H]2O[C@H](CO)[C@H](O)[C@H](n3cc(-c4cc(F)c(Cl)c(F)c4)nn3)[C@H]2OCC(=O)N[C@H]2C[C@@H](Oc3ccc(C(=O)Nc4ccc5c(c4)CN(C4CCC(=O)NC4=O)C5=O)nc3)C2)n(-c2cc(Cl)ccc2C(F)(F)F)n1 (stereo partly shown)
68

Identify the reported IC50 for the following entry. Cc1nc([C@@H]2O[C@H](CO)[C@H](O)[C@H](n3cc(-c4cc(F)c(Cl)c(F)c4)nn3)[C@H]2OCC(=O)N[C@H]2C[C@@H](Oc3ccc(C(=O)Nc4cccc5c4CN(C4CCC(=O)NC4=O)C5=O)nc3)C2)n(-c2cc(Cl)ccc2C(F)(F)F)n1 (stereo partly shown)
1040

Identify the reported IC50 for the following entry. Cc1nc([C@@H]2O[C@H](CO)[C@H](O)[C@H](n3cc(-c4cc(F)c(Cl)c(F)c4)nn3)[C@H]2OCC(=O)N2CC(COc3ccc(C(=O)Nc4cccc5c4CN(C4CCC(=O)NC4=O)C5=O)cc3)C2)n(-c2cc(Cl)ccc2C(F)(F)F)n1 (stereo partly shown)
854

* * *

# Tested target: Gal3 (Human Galectin-3) in THP-1 cells (Homo sapiens, UniProt P17931)
# Construct: host or cells: THP-1
# Sequence (P17931 whole entry): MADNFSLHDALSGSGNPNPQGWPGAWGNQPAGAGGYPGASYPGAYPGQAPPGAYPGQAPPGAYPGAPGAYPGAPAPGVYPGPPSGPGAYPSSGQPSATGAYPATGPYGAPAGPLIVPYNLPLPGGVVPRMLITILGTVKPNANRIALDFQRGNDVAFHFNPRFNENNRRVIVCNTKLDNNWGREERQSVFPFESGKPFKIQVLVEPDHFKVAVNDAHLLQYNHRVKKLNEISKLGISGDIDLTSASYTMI
# Protocol notes: ELISA Gal3 Degradation Assay in THP-1 Cells
# Format: cell-based
# Condition context: 48 hours, culture media Gal3 by ELISA, test 1, read-out: Supernatant (IC50) test 1
Below is a list of entries, each paired with its recorded IC50 value.

Consider the following illustrative entries.
Compound | Tested target | IC50
Cc1nc([C@@H]2O[C@H](CO)[C@H](O)[C@H](n3cc(-c4cc(F)c(Cl)c(F)c4)nn3)[C@H]2OCC(=O)N2CC(Oc3ccc(C(=O)Nc4ccc5c(c4)CN(C4CCC(=O)NC4=O)C5=O)nc3)C2)n(-c2cc(Cl)ccc2C(F)(F)F)n1 (some centres unmarked) | Gal3 (Human Galectin-3) in THP-1 cells (Homo sapiens, UniProt P17931) | 0.314 µM
Cc1nc([C@@H]2O[C@H](CO)[C@H](O)[C@H](n3cc(-c4cc(F)c(Cl)c(F)c4)nn3)[C@H]2OCC(=O)N2CC3(CC(Oc4ccc(C(=O)Nc5ccc6c(c5)CN(C5CCC(=O)NC5=O)C6=O)cc4)C3)C2)n(-c2cc(Cl)ccc2C(F)(F)F)n1 (some centres unmarked) | Gal3 (Human Galectin-3) in THP-1 cells (Homo sapiens, UniProt P17931) | 4.58 µM
Cc1nc([C@@H]2O[C@H](CO)[C@H](O)[C@H](n3cc(-c4cc(F)c(Cl)c(F)c4)nn3)[C@H]2OCC(=O)N[C@H]2C[C@@H](Oc3ccc(C(=O)Nc4ccc5c(c4)C(=O)N(C4CCC(=O)NC4=O)C5)nc3)C2)n(-c2cc(Cl)ccc2C(F)(F)F)n1 (some centres unmarked) | Gal3 (Human Galectin-3) in THP-1 cells (Homo sapiens, UniProt P17931) | 0.019 µM
Cc1nc([C@@H]2O[C@H](CO)[C@H](O)[C@H](n3cc(-c4cc(F)c(Cl)c(F)c4)nn3)[C@H]2OCC(=O)N2CC(COc3ccc(C(=O)Nc4ccc5c(c4)CN(C4CCC(=O)NC4=O)C5=O)nc3)C2)n(-c2cc(Cl)ccc2C(F)(F)F)n1 (some centres unmarked) | Gal3 (Human Galectin-3) in THP-1 cells (Homo sapiens, UniProt P17931) | 0.009 µM
Cc1nc([C@@H]2O[C@H](CO)[C@H](O)[C@H](n3cc(-c4cc(F)c(Cl)c(F)c4)nn3)[C@H]2OCC(=O)N[C@H]2C[C@H](Oc3ccc(C(=O)Nc4ccc5c(c4)CN(C4CCC(=O)NC4=O)C5=O)nc3)C2)n(-c2cc(Cl)ccc2C(F)(F)F)n1 (some centres unmarked) | Gal3 (Human Galectin-3) in THP-1 cells (Homo sapiens, UniProt P17931) | 0.013 µM
Cc1nc([C@@H]2O[C@H](CO)[C@H](O)[C@H](n3cc(-c4cc(F)c(Cl)c(F)c4)nn3)[C@H]2OCC(=O)N2CC(COc3ccc(C(=O)Nc4ccc5c(c4)C(=O)N(C4CCC(=O)NC4=O)C5)cc3)C2)n(-c2cc(Cl)ccc2C(F)(F)F)n1 (some centres unmarked) | Gal3 (Human Galectin-3) in THP-1 cells (Homo sapiens, UniProt P17931) | 0.035 µM

Identify the reported IC50 for the following entry. Cc1nc([C@@H]2O[C@H](CO)[C@H](O)[C@H](n3cc(-c4cc(F)c(Cl)c(F)c4)nn3)[C@H]2OCC(=O)N2CC(COc3ccc(C(=O)Nc4cccc5c4CN(C4CCC(=O)NC4=O)C5=O)nc3)C2)n(-c2cc(Cl)ccc2C(F)(F)F)n1 (some centres unmarked)
1.25 µM

Identify the reported IC50 for the following entry. Cc1nc([C@@H]2O[C@H](CO)[C@H](O)[C@H](n3cc(-c4cc(F)c(Cl)c(F)c4)nn3)[C@H]2OCC(=O)N[C@H]2C[C@@H](Oc3ccc(C(=O)Nc4ccc5c(c4)CN(C4CCC(=O)NC4=O)C5=O)cc3)C2)n(-c2cc(Cl)ccc2C(F)(F)F)n1 (some centres unmarked)
< 0.01 µM
